This collection of values is drawn from PubChem BioAssay AID2060496.

test system: 276233-004-R-J1-PDC complex spheroid viability; assay: Anticancer human tumor 276233-004-R-J1-PDC patient-derived colon adenocarcinoma cell line growth inhibition [GQUAD]; settings: second compound 0.1 µM; first compound 0.0316 µM; hits give low values

{"columns": ["Compound", "viability, T/C"],
 "data": [
  ["Cc1[nH]c2ccccc2c1CCNCc1ccc(/C=C/C(=O)NO)cc1 + Cc1[nH]c2ccc(F)cc2c1-c1nc2c3cccnc3c3ncccc3c2[nH]1", "68%"],
  ["COc1ncnc(C2CC2)c1-c1ncc2cnn(Cc3ccc(-c4nc(C(F)(F)F)cn4C(C)C)cc3)c2n1 + Cc1cnc(CNC(=O)c2c(=O)c3ccc(N4CCCN(C)CC4)nc3n3c2sc2ccccc23)cn1", "76.2%"],
  ["COc1cccc2c1C(=O)c1c(O)c3c(c(O)c1C2=O)CC(O)(C(=O)CO)CC3OC1CC(N)C(O)C(C)O1 (configuration not stated) + Cc1[nH]c2ccc(F)cc2c1-c1nc2c3cccnc3c3ncccc3c2[nH]1", "82.6%"],
  ["COc1cc(C2c3cc4c(cc3C(OC3OC5COC(C)OC5C(O)C3O)C3COC(=O)C23)OCO4)cc(OC)c1O (configuration not stated) + CN(C)c1ccc(Nc2c3ccc(NC(=O)CCN4CCCC4)cc3nc3cc(NC(=O)CCN4CCCC4)ccc23)cc1", "75.8%"],
  ["CC[C@@]1(O)C(=O)OCc2c1cc1n(c2=O)Cc2cc3c(CN(C)C)c(O)ccc3nc2-1 + CN(C)c1ccc(Nc2c3ccc(NC(=O)CCN4CCCC4)cc3nc3cc(NC(=O)CCN4CCCC4)ccc23)cc1", "112%"],
  ["CC1COCCN1c1cc(C2(S(C)(=N)=O)CC2)nc(-c2ccnc3[nH]ccc23)n1 (configuration not stated) + Cc1[nH]c2ccc(F)cc2c1-c1nc2c3cccnc3c3ncccc3c2[nH]1", "76.6%"],
  ["O=C(NO)c1cnc(N2CCN(S(=O)(=O)c3ccc4ccccc4c3)CC2)nc1 + Cc1cnc(CNC(=O)c2c(=O)c3ccc(N4CCCN(C)CC4)nc3n3c2sc2ccccc23)cn1", "93.9%"],
  ["CC1COCCN1c1cc(C2(O)CC3CCC(C2)O3)c2cnn(-c3ccn[nH]3)c2n1 (configuration not stated) + Cc1cnc(CNC(=O)c2c(=O)c3ccc(N4CCCN(C)CC4)nc3n3c2sc2ccccc23)cn1", "79.7%"],
  ["CC1COCCN1c1cc(C2(S(C)(=N)=O)CC2)nc(-c2ccnc3[nH]ccc23)n1 (configuration not stated) + Cc1cnc(CNC(=O)c2c(=O)c3ccc(N4CCCN(C)CC4)nc3n3c2sc2ccccc23)cn1", "82%"],
  ["COc1ccc([C@@H](O)c2cc(-c3ncnc4cc(N5CCOCC5)ccc34)c(F)cc2Cl)nn1 + CN(C)c1ccc(Nc2c3ccc(NC(=O)CCN4CCCC4)cc3nc3cc(NC(=O)CCN4CCCC4)ccc23)cc1", "79.4%"],
  ["O=c1[nH]cc(F)c(=O)[nH]1 + CN(C)c1ccc(Nc2c3ccc(NC(=O)CCN4CCCC4)cc3nc3cc(NC(=O)CCN4CCCC4)ccc23)cc1", "92%"],
  ["CC(=O)O[C@H]1C(=O)[C@@]2(C)[C@H]([C@H](OC(=O)c3ccccc3)[C@]3(O)C[C@H](OC(=O)[C@H](O)[C@@H](NC(=O)c4ccccc4)c4ccccc4)C(C)=C1C3(C)C)[C@]1(OC(C)=O)CO[C@@H]1C[C@@H]2O + Cc1cnc(CNC(=O)c2c(=O)c3ccc(N4CCCN(C)CC4)nc3n3c2sc2ccccc23)cn1", "80.1%"]
]}

----------
system: 276233-004-R-J1-PDC complex spheroid viability; experiment: Anticancer human tumor 276233-004-R-J1-PDC cell line growth inhibition [GQUAD]; conditions: second compound 0.0316 µM; first compound 10 µM; hits give low values;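 further: spheroids exposed to drugs for seven days; 100% = DMSO vehicle control viability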
Outcome Measure: viability, T/C (%)

{"columns": ["Molecule", "Outcome Measure", "Unit Tag", "Experimental Result"],
 "data": [
  ["O=C(NO)c1cnc(N2CCN(S(=O)(=O)c3ccc4ccccc4c3)CC2)nc1 + CN(C)c1ccc(Nc2c3ccc(NC(=O)CCN4CCCC4)cc3nc3cc(NC(=O)CCN4CCCC4)ccc23)cc1", "viability, T/C", "%", 0.86],
  ["COc1ccc([C@@H](O)c2cc(-c3ncnc4cc(N5CCOCC5)ccc34)c(F)cc2Cl)nn1 + Cc1[nH]c2ccc(F)cc2c1-c1nc2c3cccnc3c3ncccc3c2[nH]1", "viability, T/C", "%", 68.7],
  ["CC(C)(O)C1CCC(Nc2ccc3ncc(-c4cccc(C(F)(F)F)c4)n3n2)CC1 (stereo unspecified) + Cc1[nH]c2ccc(F)cc2c1-c1nc2c3cccnc3c3ncccc3c2[nH]1", "viability, T/C", "%", 48.8],
  ["COc1cc(C2c3cc4c(cc3C(OC3OC5COC(C)OC5C(O)C3O)C3COC(=O)C23)OCO4)cc(OC)c1O (stereo unspecified) + Cc1cnc(CNC(=O)c2c(=O)c3ccc(N4CCCN(C)CC4)nc3n3c2sc2ccccc23)cn1", "viability, T/C", "%", 82.1],
  ["Cc1cccc(N(C)C(=O)C2C(O)CCN2c2nc(C)cc(C(F)(F)F)c2C#N)c1 (stereo unspecified) + CN(C)c1ccc(Nc2c3ccc(NC(=O)CCN4CCCC4)cc3nc3cc(NC(=O)CCN4CCCC4)ccc23)cc1", "viability, T/C", "%", 101],
  ["COc1cccc2c1C(=O)c1c(O)c3c(c(O)c1C2=O)CC(O)(C(=O)CO)CC3OC1CC(N)C(O)C(C)O1 (stereo unspecified) + Cc1cnc(CNC(=O)c2c(=O)c3ccc(N4CCCN(C)CC4)nc3n3c2sc2ccccc23)cn1", "viability, T/C", "%", 48.6],
  ["CC(C)n1c(=O)n(C)c2cnc3cc(F)c(-c4ccc(OCCCN5CCCCC5)nc4)cc3c21 + Cc1cnc(CNC(=O)c2c(=O)c3ccc(N4CCCN(C)CC4)nc3n3c2sc2ccccc23)cn1", "viability, T/C", "%", 79.2],
  ["O=C(NO)c1cnc(N2CCN(S(=O)(=O)c3ccc4ccccc4c3)CC2)nc1 + Cc1[nH]c2ccc(F)cc2c1-c1nc2c3cccnc3c3ncccc3c2[nH]1", "viability, T/C", "%", 0.48],
  ["COc1ncnc(C2CC2)c1-c1ncc2cnn(Cc3ccc(-c4nc(C(F)(F)F)cn4C(C)C)cc3)c2n1 + Cc1cnc(CNC(=O)c2c(=O)c3ccc(N4CCCN(C)CC4)nc3n3c2sc2ccccc23)cn1", "viability, T/C", "%", 89],
  ["CC1COCCN1c1cc(C2(S(C)(=N)=O)CC2)nc(-c2ccnc3[nH]ccc23)n1 (stereo unspecified) + Cc1[nH]c2ccc(F)cc2c1-c1nc2c3cccnc3c3ncccc3c2[nH]1", "viability, T/C", "%", 67.3],
  ["C=CC(=O)N1CCN(c2nc(=O)n(-c3c(C)ccnc3C(C)C)c3nc(-c4c(O)cccc4F)c(F)cc23)C(C)C1 (stereo unspecified) + Cc1cnc(CNC(=O)c2c(=O)c3ccc(N4CCCN(C)CC4)nc3n3c2sc2ccccc23)cn1", "viability, T/C", "%", 95.8]
]}

----------
tested on: 276233-004-R-J1-PDC complex spheroid viability; assay: Anticancer human tumor 276233-004-R-J1-PDC cell line growth inhibition [GQUAD]; settings: second compound 0.316 µM; first compound 0.1 µM; hits give low values;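 further: spheroids exposed to drugs for seven days; 100% = DMSO vehicle control viability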
Note to self: use 1 only for viability, T/C readings below 80%; a reading exactly at 80% still gets -1.

{"columns": ["Molecule", "Assigned Label"],
 "data": [
  ["CC(C)n1c(=O)n(C)c2cnc3cc(F)c(-c4ccc(OCCCN5CCCCC5)nc4)cc3c21 + Cc1cnc(CNC(=O)c2c(=O)c3ccc(N4CCCN(C)CC4)nc3n3c2sc2ccccc23)cn1", -1],
  ["C=CC(=O)N1CCN(c2nc(=O)n(-c3c(C)ccnc3C(C)C)c3nc(-c4c(O)cccc4F)c(F)cc23)C(C)C1 (stereo not given) + Cc1cnc(CNC(=O)c2c(=O)c3ccc(N4CCCN(C)CC4)nc3n3c2sc2ccccc23)cn1", -1],
  ["COc1cc(C2c3cc4c(cc3C(OC3OC5COC(C)OC5C(O)C3O)C3COC(=O)C23)OCO4)cc(OC)c1O (stereo not given) + Cc1cnc(CNC(=O)c2c(=O)c3ccc(N4CCCN(C)CC4)nc3n3c2sc2ccccc23)cn1", 1],
  ["C#Cc1c(F)ccc2cc(O)cc(-c3ncc4c(N5CC6CCC(C5)N6)nc(OCC56CCCN5CC(F)C6)nc4c3F)c12 (stereo not given) + Cc1cnc(CNC(=O)c2c(=O)c3ccc(N4CCCN(C)CC4)nc3n3c2sc2ccccc23)cn1", 1]
]}

----------
molecules and their reported viability, T/C
system: 276233-004-R-J1-PDC complex spheroid viability; test: Anticancer human tumor 276233-004-R-J1-PDC cell line growth inhibition [GQUAD]; conditions: second compound 1 µM; first compound 0.316 µM; hits give low values;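 further: spheroids exposed to drugs for seven days; 100% = DMSO vehicle control viability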

{"columns": ["Molecule", "viability, T/C [%]"],
 "data": [
  ["CC1COCCN1c1cc(C2(S(C)(=N)=O)CC2)nc(-c2ccnc3[nH]ccc23)n1 (stereo not given) + CN(C)c1ccc(Nc2c3ccc(NC(=O)CCN4CCCC4)cc3nc3cc(NC(=O)CCN4CCCC4)ccc23)cc1", 59.5],
  ["CC1COCCN1c1cc(C2(S(C)(=N)=O)CC2)nc(-c2ccnc3[nH]ccc23)n1 (stereo not given) + Cc1cnc(CNC(=O)c2c(=O)c3ccc(N4CCCN(C)CC4)nc3n3c2sc2ccccc23)cn1", 72.9],
  ["CCCS(=O)(=O)Nc1ccc(F)c(C(=O)c2c[nH]c3ncc(-c4ccc(Cl)cc4)cc23)c1F + Cc1[nH]c2ccc(F)cc2c1-c1nc2c3cccnc3c3ncccc3c2[nH]1", 44.2],
  ["CC(C)(O)C1CCC(Nc2ccc3ncc(-c4cccc(C(F)(F)F)c4)n3n2)CC1 (stereo not given) + CN(C)c1ccc(Nc2c3ccc(NC(=O)CCN4CCCC4)cc3nc3cc(NC(=O)CCN4CCCC4)ccc23)cc1", 54.4],
  ["C#Cc1c(F)ccc2cc(O)cc(-c3ncc4c(N5CC6CCC(C5)N6)nc(OCC56CCCN5CC(F)C6)nc4c3F)c12 (stereo not given) + Cc1[nH]c2ccc(F)cc2c1-c1nc2c3cccnc3c3ncccc3c2[nH]1", 48.7]
]}
